- Experimental Protocol: Volume of distribution at steady state in rat at 0.5 mg/kg, iv
- Format: ADME, organism-based
- Set-up: dose 0.5 mg/kg, route intravenous
- Test Conditions: in vivo, read-out: Vdss
Metric: Vd (L/kg)

Exercise: Which Vd value is on record for "O=C(CCSc1nc2ccccc2c(=O)[nH]1)N[C@H]1CC[C@H](Oc2ccncc2)CC1" ?
Key: 0.4

[I] N#Cc1ccc(O[C@H]2CC[C@H](NC(=O)CCSc3nc4ccccc4c(=O)[nH]3)CC2)cc1
[II] O=C(CCSc1nc2ccccc2c(=O)[nH]1)N[C@H]1CC[C@H](c2nnc(-c3ccccc3)o2)CC1
Exercise: Lab notebook, comparison: I versus II , higher Vd goes to which? Answer by stating the label of the chosen item.
Key: II
(II: 0.7 L/kg, I: 0.32 L/kg)
